The measurements presented in this section are drawn from PubChem BioAssay (NCI).

# Test system: RXF 393 renal
# Assay Notes: NCI-60 one-dose screen, 48 h (100 = growth as untreated, 0 = no growth, -100 = all killed)
# Experimental Conditions: 10 µM unless noted
The panel holds about 83,000 compounds, 20% with a hit somewhere; the sample as a whole holds those more often.
// NB: equality with 90% counts as class 0; only growth strictly below is class 1

Before answering, review these 4 worked examples.
{"Compound": "COc1cc2c(=O)n(CC3CCCCC3)c3c4cc[nH]c4ncc3c2cc1OC", "Target Of Assay": "RXF 393 renal", "Class Name": "class 1"}
{"Compound": "O=C1C=CC(=O)N1c1ccc(Cc2ccc(N3C(=O)C=CC3=O)cc2)cc1", "Target Of Assay": "RXF 393 renal", "Class Name": "class 0"}
{"Compound": "C=C1CCC2C3(C)COC(c4ccc(SC)cc4)OC3CCC2(C)C1C/C=C1/C(=O)OCC1O (stereo not given)", "Target Of Assay": "RXF 393 renal", "Class Name": "class 1"}
{"Compound": "O=C1C=CC(Nc2ccccc2[N+](=O)[O-])C1Nc1ccccc1[N+](=O)[O-] (stereo not given)", "Target Of Assay": "RXF 393 renal", "Class Name": "class 1"}

Hello, is growth of the following compound strictly smaller than 90%? COc1ccc(S(=O)(=O)NCCNc2nccc(-c3c(-c4cccc([N+](=O)[O-])c4)nc4sccn34)n2)cc1
class 1

In the record for COC1=CC(=O)C(OC)=C(OC)C1=O , is growth less than 90%?
class 0

Is growth of CCOC(=O)C(C#N)C1CCCCC1 (stereo not given) strictly below 90%?
class 0

Find out if reported growth for C(=N\Nc1ccccn1)/c1ccccn1 is less than 90%
class 1
